Listing of recorded pIC50 by entry.
# target_under_test: UniProt Q9UBY0
# protocol: FLIPR assay of Na+/H+ exchange (BCECF fluorescence recovery) in human NHE2-LF transfected PS120 cells
# settings: read-out: IC50 Values Determined By FLIPR, NHE2-LF
pIC50: −log10 of the molar value.

[
  {
    "molecule": "NC(N)=NC(=O)c1nc(Cl)c(N2CCCCCC2)nc1N [(hexa)-Amiloride, 5-(N,N-Hexamethylene)-amiloride]",
    "pIC50": 5.13
  },
  {
    "molecule": "N=C(N)NC(=O)c1nc(Cl)c(N)nc1N [Amiloride, amiloride]",
    "pIC50": 4.57
  }
]

---

IC50 overview
# target_under_test: human NHE2-SF (Homo sapiens)
# Construct: NotI/BgIII fragments including each of the entire coding regions were subcloned into pcDNA3.1(−) vectors; expressed in transfected cells; two lines tested
# Sequence (Q9UBY0 116-812): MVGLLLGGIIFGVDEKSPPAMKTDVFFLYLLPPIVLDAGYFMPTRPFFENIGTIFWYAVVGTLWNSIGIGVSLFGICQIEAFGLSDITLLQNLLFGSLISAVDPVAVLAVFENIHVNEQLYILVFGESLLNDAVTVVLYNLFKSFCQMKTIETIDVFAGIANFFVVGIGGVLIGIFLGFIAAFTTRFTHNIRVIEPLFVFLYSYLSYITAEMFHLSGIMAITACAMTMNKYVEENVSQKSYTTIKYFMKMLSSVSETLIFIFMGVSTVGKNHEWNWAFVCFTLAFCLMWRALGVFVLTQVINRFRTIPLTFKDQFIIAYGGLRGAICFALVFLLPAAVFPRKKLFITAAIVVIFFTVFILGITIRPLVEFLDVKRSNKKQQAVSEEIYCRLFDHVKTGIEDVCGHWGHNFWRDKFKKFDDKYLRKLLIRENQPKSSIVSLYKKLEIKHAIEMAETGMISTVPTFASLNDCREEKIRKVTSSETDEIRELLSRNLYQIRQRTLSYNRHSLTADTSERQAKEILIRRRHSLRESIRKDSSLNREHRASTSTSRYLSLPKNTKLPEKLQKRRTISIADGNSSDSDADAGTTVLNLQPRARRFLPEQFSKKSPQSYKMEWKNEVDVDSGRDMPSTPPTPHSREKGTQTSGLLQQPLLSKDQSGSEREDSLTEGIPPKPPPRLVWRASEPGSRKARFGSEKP
# protocol: FLIPR assay of Na+/H+ exchange (BCECF fluorescence recovery) in human NHE2-SF transfected PS120 cells
# Assay type: cell-based
# settings: line #2, read-out: IC50 Values Determined By FLIPR, NHE2-SF line #2

[
  {
    "compound": "NC(N)=NC(=O)c1nc(Cl)c(N2CCCCCC2)nc1N [(hexa)-Amiloride, 5-(N,N-Hexamethylene)-amiloride]",
    "target_under_test": "human NHE2-SF (Homo sapiens)",
    "IC50": "0.045 µM"
  },
  {
    "compound": "N=C(N)NC(=O)c1nc(Cl)c(N)nc1N [Amiloride, amiloride]",
    "target_under_test": "human NHE2-SF (Homo sapiens)",
    "IC50": "1.37 µM"
  }
]
